Source: patent US20200207859A1

# systemTested: CD74 (human), P04233
# Sequence (P04233 whole entry): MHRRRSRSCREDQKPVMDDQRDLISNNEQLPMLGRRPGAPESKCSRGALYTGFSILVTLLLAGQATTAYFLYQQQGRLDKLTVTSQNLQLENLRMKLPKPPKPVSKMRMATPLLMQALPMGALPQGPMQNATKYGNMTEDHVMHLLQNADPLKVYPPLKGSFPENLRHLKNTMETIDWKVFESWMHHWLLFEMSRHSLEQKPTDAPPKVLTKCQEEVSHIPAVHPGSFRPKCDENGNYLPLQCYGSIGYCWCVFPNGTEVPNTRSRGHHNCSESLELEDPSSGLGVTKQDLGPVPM
# measurementProtocol: cell-based or functional assay
# key: entry, value: cell killing IC50, SUP-B15 (ALL) cells

binder	cell killing IC50, SUP-B15 (ALL) cells (nM)
Conjugate E (anti-CD74 IgG-PEG4-MMAF conjugate) (antibody, V domains shown, here or on the partner: modified amino acid residue 30 (pAMF) according to Example 2, position not stated for this conjugate, linked to PEG4-MMAF) VH: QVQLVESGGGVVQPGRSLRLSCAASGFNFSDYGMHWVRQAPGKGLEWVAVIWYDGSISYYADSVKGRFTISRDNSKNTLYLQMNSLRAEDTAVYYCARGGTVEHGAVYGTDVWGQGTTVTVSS VL: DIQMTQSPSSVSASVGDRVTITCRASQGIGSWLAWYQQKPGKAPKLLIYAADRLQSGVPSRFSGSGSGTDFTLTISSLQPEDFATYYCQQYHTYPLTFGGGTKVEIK	2.5
Conjugate B (anti-CD74 IgG-PEG4-maytansine conjugate) (antibody, V domains shown, here or on the partner: modified amino acid residue 30 (pAMF) according to Example 2, position not stated for this conjugate, linked to a PEG4-maytansine linker-payload) VH: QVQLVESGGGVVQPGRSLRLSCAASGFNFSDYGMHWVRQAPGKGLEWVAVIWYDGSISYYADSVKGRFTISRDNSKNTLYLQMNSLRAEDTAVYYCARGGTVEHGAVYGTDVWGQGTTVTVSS VL: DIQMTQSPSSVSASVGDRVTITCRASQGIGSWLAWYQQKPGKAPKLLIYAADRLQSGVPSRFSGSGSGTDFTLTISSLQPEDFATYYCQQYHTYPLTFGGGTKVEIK	5.7
Conjugate A (anti-CD74 IgG-DBCO-PEG4-maytansine conjugate) (antibody, V domains shown, here or on the partner: para-azidomethyl-L-phenylalanine (pAMF, residue 30) at heavy chain EU position 404 (constant region, outside SEQ ID NO 236), linked to DBCO-PEG4-maytansine) VH: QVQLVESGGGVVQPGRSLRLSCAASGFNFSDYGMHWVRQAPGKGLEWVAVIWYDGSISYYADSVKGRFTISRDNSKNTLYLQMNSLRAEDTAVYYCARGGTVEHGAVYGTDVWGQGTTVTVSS VL: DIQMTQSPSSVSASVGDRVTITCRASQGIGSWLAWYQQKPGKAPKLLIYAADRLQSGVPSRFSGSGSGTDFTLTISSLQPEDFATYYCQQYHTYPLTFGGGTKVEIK	3
Conjugate F (anti-CD74 IgG-PEG4-MMAE conjugate) (antibody, V domains shown, here or on the partner: modified amino acid residue 30 (pAMF) according to Example 2, position not stated for this conjugate, linked to PEG4-MMAE) VH: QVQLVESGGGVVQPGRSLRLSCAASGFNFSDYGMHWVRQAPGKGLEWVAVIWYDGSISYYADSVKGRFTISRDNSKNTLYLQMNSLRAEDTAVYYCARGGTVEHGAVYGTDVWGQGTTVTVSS VL: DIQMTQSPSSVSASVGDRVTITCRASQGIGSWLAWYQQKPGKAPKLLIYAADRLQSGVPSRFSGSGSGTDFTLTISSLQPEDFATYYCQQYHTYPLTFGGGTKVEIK	3.7
